- target or system: T1, human UPK1B (hUPK1B) protein, full length, on the cell surface (human, UniProt O75841 1-260)
- T1 sequence: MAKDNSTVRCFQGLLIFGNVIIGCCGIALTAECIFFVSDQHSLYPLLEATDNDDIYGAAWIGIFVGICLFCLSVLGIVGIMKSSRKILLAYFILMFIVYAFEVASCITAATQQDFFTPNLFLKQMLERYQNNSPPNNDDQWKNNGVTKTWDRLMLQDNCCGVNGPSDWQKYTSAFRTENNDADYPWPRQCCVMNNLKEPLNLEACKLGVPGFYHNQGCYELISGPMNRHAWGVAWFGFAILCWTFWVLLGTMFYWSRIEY
- assay procedure: cell-based or functional assay
property: IVK, HxUPK1B, 250pM, fz, % live [cont.] (% live)
# value in % live; strip the unit string

The binder listed as SC115.90 (antibody, IgG2a, V domains shown) VH: DVKLVESGGGFVRLGGSLKLSCAASGFTFNNYAMSWVRQTPEKRLEWVAIISRGGTKNYYPDSVKGRFTISRDNAKNTLYLQMSSLRSEDTAMYYCARLYYDDYEGYMDYWGQGTSVTVSS VL: DIVLTQSPASLAVSLGQRATISCRASKSVSTSGYSYMHWYQQKPGQPPKLLIYLASNLESGVPARFSGSGSGTDFTLNIHPVEEEDAATYYCQHSRELPLTFGAGTRLELK has a reported IVK, HxUPK1B, 250pM, fz, % live [cont.] of 104

The binder listed as SC115.46 (antibody, V domains shown) VH: QVQLQQSGPQLVRPGASVKISCKASGYSFTTSWMHWMKQRPGQGLEWIGMIDPSDSETGLNQIFRDKATLTVDKYSSTAYMQLSSPTSEDSAVYYCARRGRFSYDYGGFAYWGQGTLVTVSA VL: DIVMTQSPSSLTVTAGEKVTMSCKSSQSLLNSGNQKNYLTWYQQKPGQTPKLLIYWASTRESGVPDRFTGSGSGTDFTLTISSVQAEDLAVYYCQNDYSNPFTFGGGTKLEIK has a reported IVK, HxUPK1B, 250pM, fz, % live [cont.] of 19.3

The binder listed as SC115.94 (antibody, IgG2a, V domains shown) VH: QVQLQLSGAELVKPGASVKISCKASGYAFSSYWMNWVKQRPGKGLEWIGQIYPGDADTHYNGKFKGKATLTADKSSSTAYMQLSSLTSEDSAVYFCARLKLGRFDYWGQGTTLTVSS VL: QLVLTQSSSASFSLGASAKLTCTLSSQHSTYTIEWYQQQPLKPPKYVMELKKDGSHNTGDGIPDRFSGSSSGADRYLSISNIQPEDEAIYICGVGYTIKEQFVYVFGGGTKVTVL has a reported IVK, HxUPK1B, 250pM, fz, % live [cont.] of 55.7
